- test description: Induction of apoptosis in human monocytes assessed as viable cells using Annexin V/propidium iodide by flow cytometry (reference value: 97.53 %)
- Assay type: cell-based, Monocyte
- condition description: read-out: Activity
Mark Satisfied only when viability stays strictly below 70%. Values equal to the cut-off are Not satisfied.

>>> df
                               given_smiles   answer_label
0  NC(=S)N/N=C/c1ccc(Sc2ccc(C(F)(F)F)cc2)o1  Not satisfied
1       O=C(Cn1ccnc1[N+](=O)[O-])NCc1ccccc1  Not satisfied
2  NC(=S)N/N=C/c1ccc(Sc2c(F)c(F)c(C(F)(F)F)c(F)c2F)o1  Not satisfied
3  NC(=S)N/N=C/c1ccc(Sc2ccc(C(F)(F)F)cc2[N+](=O)[O-])o1  Not satisfied
4  NC(=S)N/N=C/c1ccc(Sc2cccc(C(F)(F)F)c2)o1      Satisfied

---

Measured Activity by item
- test description: Induction of apoptosis in human monocytes assessed as early apoptotic cells using Annexin V/propidium iodide by flow cytometry (reference value: 2.18 %)
- Type: cell-based
- condition description: monocyte
measured property: Activity (%)

>>> print(df.to_string())
                               given_smiles  quantitative_result
0    NC(=S)N/N=C/c1ccc(Sc2ccccc2C(F)(F)F)o1                26.47
1  NC(=S)N/N=C/c1ccc(Sc2cccc(C(F)(F)F)c2)o1                 22.9
2  NC(=S)N/N=C/c1ccc(Sc2ccc(C(F)(F)F)cc2[N+](=O)[O-])o1                17.05
3       O=C(Cn1ccnc1[N+](=O)[O-])NCc1ccccc1                18.79
4  NC(=S)N/N=C/c1ccc(Sc2ccc(C(F)(F)F)cc2)o1                21.44
5  NC(=S)N/N=C/c1ccc(Sc2c(F)c(F)c(C(F)(F)F)c(F)c2F)o1                21.91

---

- test description: Induction of apoptosis in human platelets assessed as early apoptotic cells after 10 mins using Annexin V/propidium iodide by flow cytometry (reference value: 10.30 %)
- Type: cell-based
- condition description: platelet
Reported Activity values for a set of compounds
measured property: Activity (%)

>>> df
                                   compound  quantitative_result
0    NC(=S)N/N=C/c1ccc(Sc2ccccc2C(F)(F)F)o1                17.31
1  NC(=S)N/N=C/c1ccc(Sc2c(F)c(F)c(C(F)(F)F)c(F)c2F)o1                12.55
2  NC(=S)N/N=C/c1ccc(Sc2ccc(C(F)(F)F)cc2[N+](=O)[O-])o1                12.48
3  NC(=S)N/N=C/c1ccc(Sc2cccc(C(F)(F)F)c2)o1                 8.87
4  NC(=S)N/N=C/c1ccc(Sc2ccc(C(F)(F)F)cc2)o1                20.39
5  O=C(Cn1ccnc1[N+](=O)[O-])NCc1ccccc1 [BENZNIDAZOLE]                22.95

---

- test description: Induction of apoptosis in human platelets assessed as late apoptotic cells after 10 mins using Annexin V/propidium iodide by flow cytometry (reference value: 0.02 %)
- Type: cell-based
- condition description: platelet
Param label: returns Condition met when Activity < 0.06%, returns Condition not met otherwise, including exact equality.

In [3]: df
Out[3]:
                                   compound       answer_label
0  NC(=S)N/N=C/c1ccc(Sc2ccc(C(F)(F)F)cc2)o1  Condition not met
1  NC(=S)N/N=C/c1ccc(Sc2c(F)c(F)c(C(F)(F)F)c(F)c2F)o1      Condition met
2  NC(=S)N/N=C/c1ccc(Sc2cccc(C(F)(F)F)c2)o1      Condition met
3  O=C(Cn1ccnc1[N+](=O)[O-])NCc1ccccc1 [BENZNIDAZOLE]      Condition met
4  NC(=S)N/N=C/c1ccc(Sc2ccc(C(F)(F)F)cc2[N+](=O)[O-])o1  Condition not met
